System: Dendra2-LC3 HEK cells
Assay: Optical pulse labeling: time-dependent decay of photoconverted (red, RFP/TRITC) Dendra2-LC3 as measure of autophagic flux
Assay type: cell-based, human
Parameters: key: enhancer: [Sample9H RFP/OH RFP]<[DMSO9H RFP/OH RFP−3SDDMSO]; inhibitor: [Sample9H RFP/OH RFP]>[DMSO9H RFP/OH RFP 3SDDMSO]
Conditions: 10 uM, 9 hours after drug addition
metric-name: Hit class in screen of Enzo Autophagy compound library (9H RFP/0H RFP)

compound	endpoint-result
Cn1c(=O)n(-c2ccc(C(C)(C)C#N)cc2)c2c3cc(-c4cnc5ccccc5c4)ccc3ncc21 [NVP-BEZ235]	enhancer
CCN(CC)CCCCN1c2ccccc2Oc2ccc(Cl)cc21 [AKT inhibitor X]	enhancer
CO[C@H]1C[C@@H]2CC[C@@H](C)[C@@](O)(O2)C(=O)C(=O)N2CCCC[C@H]2C(=O)O[C@H]([C@H](C)C[C@@H]2CC[C@@H](O)[C@H](OC)C2)CC(=O)[C@H](C)/C=C(\C)[C@@H](O)[C@@H](OC)C(=O)[C@H](C)C[C@H](C)/C=C/C=C/C=C/1C [Rapamycin]	enhancer
